Parameter: pEC50. Scope: all listed entries.
target: recombinant Antigen 1 (recombinant Ab1 target; recombinant integrin αvβ6 antigen); experiment: saturation binding ELISA
Sequence (P06756 31-992, chain 1 of 2): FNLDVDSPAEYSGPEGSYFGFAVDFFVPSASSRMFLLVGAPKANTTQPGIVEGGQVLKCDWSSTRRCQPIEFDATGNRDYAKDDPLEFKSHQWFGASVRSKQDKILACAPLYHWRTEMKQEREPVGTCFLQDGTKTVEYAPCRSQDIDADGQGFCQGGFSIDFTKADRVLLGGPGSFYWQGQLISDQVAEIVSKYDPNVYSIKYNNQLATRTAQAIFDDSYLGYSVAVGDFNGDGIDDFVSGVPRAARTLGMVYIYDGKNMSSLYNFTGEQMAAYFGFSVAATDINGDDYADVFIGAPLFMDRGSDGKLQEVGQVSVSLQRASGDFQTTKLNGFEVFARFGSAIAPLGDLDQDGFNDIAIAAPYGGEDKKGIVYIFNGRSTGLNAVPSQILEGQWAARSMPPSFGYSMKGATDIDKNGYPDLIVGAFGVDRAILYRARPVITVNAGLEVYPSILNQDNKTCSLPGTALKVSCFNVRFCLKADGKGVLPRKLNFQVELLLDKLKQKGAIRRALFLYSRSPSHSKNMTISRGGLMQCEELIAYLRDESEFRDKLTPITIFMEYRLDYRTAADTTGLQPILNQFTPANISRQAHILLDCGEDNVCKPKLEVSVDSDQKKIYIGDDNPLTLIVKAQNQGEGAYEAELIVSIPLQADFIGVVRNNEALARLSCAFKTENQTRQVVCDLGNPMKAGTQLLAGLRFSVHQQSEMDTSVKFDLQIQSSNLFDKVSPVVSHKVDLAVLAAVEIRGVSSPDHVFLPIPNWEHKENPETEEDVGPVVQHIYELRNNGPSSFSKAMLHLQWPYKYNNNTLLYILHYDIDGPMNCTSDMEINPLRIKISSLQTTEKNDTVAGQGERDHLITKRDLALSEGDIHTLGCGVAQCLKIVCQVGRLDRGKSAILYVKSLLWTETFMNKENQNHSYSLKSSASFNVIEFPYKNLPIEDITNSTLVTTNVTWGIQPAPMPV
Sequence (P18564 22-709, chain 2 of 2, further chain): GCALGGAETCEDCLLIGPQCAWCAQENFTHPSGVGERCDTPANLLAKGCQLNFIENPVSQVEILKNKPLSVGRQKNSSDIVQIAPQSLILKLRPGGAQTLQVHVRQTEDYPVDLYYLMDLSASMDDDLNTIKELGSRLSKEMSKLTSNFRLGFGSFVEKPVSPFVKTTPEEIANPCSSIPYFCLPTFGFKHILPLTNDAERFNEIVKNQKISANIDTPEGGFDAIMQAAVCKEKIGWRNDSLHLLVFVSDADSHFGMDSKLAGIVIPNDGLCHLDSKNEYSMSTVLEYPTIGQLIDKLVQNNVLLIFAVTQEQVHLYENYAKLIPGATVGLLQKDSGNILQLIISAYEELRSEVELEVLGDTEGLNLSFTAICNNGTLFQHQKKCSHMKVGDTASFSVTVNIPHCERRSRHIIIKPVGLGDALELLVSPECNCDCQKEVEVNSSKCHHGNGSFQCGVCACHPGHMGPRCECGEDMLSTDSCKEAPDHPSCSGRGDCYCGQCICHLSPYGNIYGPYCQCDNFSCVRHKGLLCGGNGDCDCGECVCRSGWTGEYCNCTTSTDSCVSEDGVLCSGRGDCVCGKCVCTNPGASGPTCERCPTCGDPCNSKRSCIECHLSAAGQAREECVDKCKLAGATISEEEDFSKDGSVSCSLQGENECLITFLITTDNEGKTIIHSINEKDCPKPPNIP
# pEC50 = -log10(concentration in molar units)

Example entries and their recorded answers appear below.
# binder, pEC50
measured = [
    ("Vel-IPV-Ab1 Coil 122 (antibody, part only; not given: Ab1 heavy and light chains, part only) heavy, part: QGASTSVDELQAEVDQLEDENYAYKTKVAQLRKKVEKLGSIPVSLRSG light, part: QGASTTVAQLEEKVKTLRAENYEAKSEVQRLEEQVAQLGSIPVSLRSG", 7.07),
    ("Vel-IPV-Ab1 Coil 138 (antibody, part only; not given: Ab1 heavy and light chains, part only) heavy, part: QGASTSVDELQAEVDQLEDENYALKTKLAQLRKKVEKLGSIPVSLRSG light, part: QGASTTVAQLEEKVKTLRAENYELKSEIQRLEEQVAQLGSIPVSLRSG", 6.93),
    ("Vel-IPV-Ab1 Coil 126 (antibody, part only; not given: Ab1 heavy and light chains, part only) heavy, part: QGASTSVDELQAEVDQLEDENYAYKTKVAQLRKKVEKLGSIPVSLRSG light, part: QGASTTVAQLEEKVKTLRAENYESKSEVQRLEEQVAQLGSIPVSLRSG", 6.96),
    ("Vel-IPV-Ab1 Coil 117 (antibody, part only; not given: Ab1 heavy and light chains, part only) heavy, part: QGASTSVDELQAEVDQLEDENYAFKTKVAQLRKKVEKLGSIPVSLRSG light, part: QGASTTVAQLEEKVKTLRAENYEWKSEVQRLEEQVAQLGSIPVSLRSG", 6.49),
    ("Vel-IPV-Ab1 Coil 151 (antibody, part only; not given: Ab1 heavy and light chains, part only) heavy, part: QGASTSVDELQAEVDQLEDENYALKTKLAQLRKKVEKLGSIPVSLRSG light, part: QGASTTVAQLEEKVKTLRAENYELKSELQRLEEQVAQLGSIPVSLRSG", 6.70),
]

*Q* State the recorded pEC50 for this entry: Vel-IPV-Ab1 Coil 110 (antibody, part only; not given: Ab1 heavy and light chains, part only) heavy, part: QGASTSVDELQAEVDQLEDENYAGKTKVAQLRKKVEKLGSIPVSLRSG light, part: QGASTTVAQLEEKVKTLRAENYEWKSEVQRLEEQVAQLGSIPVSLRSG
*A* 6.26

*Q* Which pEC50 value belongs to Vel-IPV-Ab1 Coil 145 (antibody, part only; not given: Ab1 heavy and light chains, part only) heavy, part: QGASTSVDELQAEVDQLEDENYALKTKIAQLRKKVEKLGSIPVSLRSG light, part: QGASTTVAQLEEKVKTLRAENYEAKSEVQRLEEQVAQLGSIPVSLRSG ?
*A* 7.16

*Q* Need pEC50 of Vel-IPV-Ab1 Coil 107 (antibody, part only; not given: Ab1 heavy and light chains, part only) heavy, part: QGASTSVDELQAEVDQLEDENYASKTKVAQLRKKVEKLGSIPVSLRSG light, part: QGASTTVAQLEEKVKTLRAENYEFKSEVQRLEEQVAQLGSIPVSLRSG , thanks.
*A* 6.88

*Q* # lookup: pEC50 of Vel-IPV-Ab1 Coil 106 (antibody, part only; not given: Ab1 heavy and light chains, part only) heavy, part: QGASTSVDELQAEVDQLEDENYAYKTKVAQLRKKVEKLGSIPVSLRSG light, part: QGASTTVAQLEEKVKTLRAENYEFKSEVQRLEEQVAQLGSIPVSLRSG
*A* 6.72
